Hey, just so you know, these numbers are from ChEMBL document CHEMBL4052675.

Test system: HT-29
MEASUREMENT DESCRIPTION: Cytotoxicity against human HT-29 cells after 72 hrs by MTT assay
Format: functional, cell-based
TEST CONTEXT: HT-29, 72 h
Please go through the items and note down their IC50.
// note: answer is a bare numeric in nM

// returns reported IC50 for input `CCNCc1cnc2c(C#N)c(-c3ccc(OC)c(OC)c3OC)cc(-c3ccc(F)cc3F)n12` 90

// returns reported IC50 for input `COc1ccc(-c2cc(-c3ccc(F)cc3F)n3c(CN4CCC(C)CC4)cnc3c2C#N)c(OC)c1OC` 140

// returns reported IC50 for input `CN1CCN(Cc2cn3c(-c4c[nH]c5ccccc45)cc(-c4ccc(F)cc4Cl)c(C#N)c3n2)CC1` 140

// returns reported IC50 for input `CN1CCN(Cc2cn3c(-c4c[nH]c5ccccc45)cc(-c4ccc(F)cc4F)c(C#N)c3n2)CC1` 110

// returns reported IC50 for input `CC(C)NCc1cn2c(-c3c[nH]c4ccccc34)cc(-c3ccc(F)cc3F)c(C#N)c2n1` 80
